Test system: NCI-H460 lung
assayExplanation: NCI tumour cell line growth inhibition, 48 h
In this section we review reported TGI values for a set of compounds.

These recorded examples may help you get a feel for the data.
> print(dat)
                                   compound  metric  reportedresult
1  COc1ccc(C(=O)Cn2c(C(=O)c3ccc(Cl)cc3)nc(-c3ccccc3)c2-c2ccccc2)cc1     TGI        > 100 µM
2  COc1ccc(C2=NNC(c3sc(Cl)nc3Cl)C2)cc1 (stereo unspecified)     TGI         75.1 µM
3  COc1ccc(NCn2nc(CCCCCCCCc3nn(CNc4ccc(OC)cc4)c(=S)o3)oc2=S)cc1     TGI        > 100 µM
4          Oc1ccc(Nc2nc(Cl)c3[nH]cnc3n2)cc1     TGI        > 100 µM
5                 CCNC(=O)COc1ccc(Cl)c(C)c1     TGI        > 100 µM

Here is another compound to look at.
input: Could you share which TGI value was measured for O=C(O)C1CC2C=CCC(C2)C1 (stereo unspecified) ?
output: > 100 µM
